The measurements presented in this section are drawn from patent US9815850B2.

Biological target: GST-hRIPK1 (8-327) (Homo sapiens (Human))
Sequence (Q13546 8-327): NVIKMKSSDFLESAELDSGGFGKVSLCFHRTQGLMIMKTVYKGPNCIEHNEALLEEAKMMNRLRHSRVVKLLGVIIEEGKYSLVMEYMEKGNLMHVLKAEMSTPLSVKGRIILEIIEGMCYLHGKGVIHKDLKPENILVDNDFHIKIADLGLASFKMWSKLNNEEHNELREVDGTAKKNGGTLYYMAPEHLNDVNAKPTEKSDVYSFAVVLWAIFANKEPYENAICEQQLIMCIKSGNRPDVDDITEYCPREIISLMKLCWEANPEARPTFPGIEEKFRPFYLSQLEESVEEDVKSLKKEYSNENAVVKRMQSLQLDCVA
Test: Fluorescent Polarization Binding (FP Binding) assay
Settings: 10 nM GST-hRIPK1 (8-327), 5 nM fluorescent labeled ligand; read-out: FP IC50
Quantity Measured: IC50

Example results:
# Compound, Quantity Measured, Result
records = [
    ("CN1C(=O)[C@@H](NC(=O)c2cc(Cc3ccccc3)[nH]n2)CC2(CC2)c2ccccc21", "IC50", "0.0001 to 1 µM"),
    ("CN1C(=O)[C@@H](NC(=O)c2ncc(Cc3ccccn3)o2)[C@H]2C[C@H]2c2nccnc21", "IC50", "0.0001 to 1 µM"),
    ("COc1cccc(Cn2cc(F)c(C(=O)N[C@H]3COc4ccccc4N(C)C3=O)n2)n1", "IC50", "0.0001 to 1 µM"),
    ("CN1C(=O)[C@@H](NC(=O)c2nn(Cc3ccc(Cl)cn3)cc2F)COc2ccccc21", "IC50", "0.0001 to 1 µM"),
    ("CN1C(=O)[C@H](NC(=O)c2cc(Cc3ccccc3)on2)CCc2sc(Cl)cc21 (stereo in doubt)", "IC50", "0.0001 to 1 µM"),
]

Sample CN1C(=O)[C@@H](NC(=O)c2nnc(Cc3ccccc3)s2)COc2cccnc21 — what was its IC50?
0.0001 to 1 µM

Data request, read-out IC50, for CN1C(=O)[C@@H](NC(=O)c2cnc(C3(c4ccccc4)CC3)[nH]2)COc2ccccc21
> 3 µM

// lookup IC50 for CN1C(=O)[C@@H](NC(=O)c2nnc(Cc3ccccc3)[nH]2)C[C@H](F)c2ccccc21 [Example 12A]
0.0001 to 1 µM

Name the reported IC50 value associated with the compound CN1C(=O)[C@@H](NC(=O)c2nnc(Cc3ccccc3)[nH]2)C[C@@H](F)c2ccccc21 [Example 11A]
0.0001 to 1 µM

Sample C[C@H]1Oc2cccnc2N(C)C(=O)[C@H]1NC(=O)c1nnc(C(F)(F)c2ccccc2)o1 — what was its IC50?
0.0001 to 1 µM

Given the entry CN1C(=O)[C@H](NC(=O)c2nnc(Cc3ccccc3)[nH]2)C[C@@H](F)c2ccccc21 [Example 12B] , report its measured IC50.
0.0001 to 1 µM

---

Item-by-item account of pIC50
Target: GST-hRIPK1 (8-327) (Homo sapiens (Human))
Test: Fluorescent Polarization Binding (FP Binding) assay
Conditions: 10 nM GST-hRIPK1 (8-327), 5 nM fluorescent labeled ligand; read-out: FP IC50
pIC50: −log10 of the molar value.

// worked examples, pIC50 included
# Molecule, Target System, pIC50
measured = [
    ("CN1C(=O)[C@@H](NC(=O)c2cc(C3(c4ccccc4)CC3)on2)COc2cccnc21 [Example 77]", "GST-hRIPK1 (8-327) (Homo sapiens (Human))", "6.00 to 10.00"),
    ("O=C(N[C@H]1C(=O)Nc2c(F)cc(F)cc2[C@H]2C[C@H]21)c1cn(Cc2ccccc2)nn1 [Example 90A]", "GST-hRIPK1 (8-327) (Homo sapiens (Human))", "5.00 to 6.00"),
    ("CN1C(=O)[C@@H](NC(=O)c2cc(C3(c4ccccc4)CC3)[nH]n2)COc2ccccc21 [Example 72]", "GST-hRIPK1 (8-327) (Homo sapiens (Human))", "6.00 to 10.00"),
    ("CN1C(=O)[C@@H](NC(=O)c2ncc(Cc3cccc(C#N)c3)s2)CCc2cccnc21 [Example 219]", "GST-hRIPK1 (8-327) (Homo sapiens (Human))", "6.00 to 10.00"),
    ("CN1C(=O)[C@@H](NC(=O)c2cc(Cc3ccccc3)on2)CCc2sc(Cl)cc21 (stereo in doubt) [Example 1A]", "GST-hRIPK1 (8-327) (Homo sapiens (Human))", "6.00 to 10.00"),
    ("O=C(N[C@H]1CCc2ccccc2-n2cnnc21)c1cc(Cc2ccccc2)on1 [Example 71A]", "GST-hRIPK1 (8-327) (Homo sapiens (Human))", "6.00 to 10.00"),
]

Record request: pIC50 value, item CN1C(=O)[C@H](NC(=O)c2nn(Cc3ccccc3)cc2F)[C@@H]2C[C@@H]2c2cccnc21 [Example 82B]
< 5.52

Sample CN1C(=O)[C@@H](NC(=O)c2nnc(Cc3ccc(F)cc3)o2)[C@H]2C[C@H]2c2nccnc21 [Example 223] — what was its pIC50?
6.00 to 10.00

---

Conditions: male, Sprague-Dawley Crl:CD(SD), in vivo
Rat unbound CL reference
Kindly format the answer as number then unit.

# Molecule, Result
rows = [
    ("CN1C(=O)[C@@H](NC(=O)c2nnc(Cc3ccccc3)[nH]2)[C@H]2C[C@H]2c2cccnc21 [Example 75A]", "91 mL/min/kg"),
    ("CN1C(=O)[C@@H](NC(=O)c2cc(C3(c4ccccc4)CC3)on2)COc2cccnc21", "595 mL/min/kg"),
    ("C[C@H]1Oc2cccnc2N(C)C(=O)[C@H]1NC(=O)c1nnc(Cc2ccccc2)o1", "100 mL/min/kg"),
    ("CN1C(=O)[C@@H](NC(=O)c2nnc(Cc3ccccc3)[nH]2)COc2cccnc21", "22 mL/min/kg"),
    ("C[C@H]1Oc2cccnc2N(C)C(=O)[C@H]1NC(=O)c1nnc(Cc2ccccc2)[nH]1", "44 mL/min/kg"),
]

In the following, a different molecule is considered.
Which Rat unbound CL is listed for O=C(N[C@@H]1C(=O)Nc2c(F)cc(F)cc2[C@@H]2C[C@H]12)c1nnc(Cc2ccccc2)[nH]1 [Example 83A] ?
116 mL/min/kg

---

Biological target: GST-hRIPK1 (8-327) (Homo sapiens (Human))
Assay: ADP-Glo kinase assay
Format: biochemical
Conditions: 50 μM ATP
pIC50: −log10 of the molar value.
Quantity Measured: pIC50

Entry O=C(N[C@H]1COC[C@H]2CCCN2C1=O)c1nnc(Cc2ccccc2)[nH]1 has what pIC50?
< 5.00

---

Target: GST-hRIPK1 (8-327) (Homo sapiens (Human))
Test: Fluorescent Polarization Binding (FP Binding) assay
Conditions: 10 nM GST-hRIPK1 (8-327), 5 nM fluorescent labeled ligand; read-out: FP IC50
pIC50: −log10 of the molar value.
Quantity Measured: pIC50

Find pIC50 (GST-hRIPK1 (8-327) (Homo sapiens (Human))) for the entry CN1C(=O)[C@@H](NC(=O)c2cc(Cc3ccccc3)on2)[C@H]2C[C@H]2c2cccnc21 [Example 81A]
6.00 to 10.00

Please provide the recorded pIC50 for O=C(N[C@@H]1C(=O)Nc2c(F)cc(F)cc2[C@@H]2C[C@H]12)c1nnc(Cc2ccccc2)[nH]1 [Example 83A] , tested on GST-hRIPK1 (8-327) (Homo sapiens (Human)).
6.00 to 10.00

Observed pIC50 on GST-hRIPK1 (8-327) (Homo sapiens (Human)) for CN1C(=O)[C@@H](NC(=O)c2ncc(C3(c4ccccc4)CC3)[nH]2)COc2ccccc21 , please.
6.00 to 10.00

What measured pIC50 is associated with O=C(N[C@@H]1C(=O)Nc2c(F)cc(F)cc2[C@@H]2C[C@H]12)c1cn(Cc2ccccc2)nn1 [Example 90B] on GST-hRIPK1 (8-327) (Homo sapiens (Human))?
6.00 to 10.00

Entry O=C(N[C@H]1COc2cccnc2NC1=O)c1cc(C2(c3ccccc3)CC2)[nH]n1 , system GST-hRIPK1 (8-327) (Homo sapiens (Human)): what pIC50 was measured?
6.00 to 10.00

Form: Entry = [2H]C([2H])([2H])N1C(=O)[C@@H](NC(=O)c2cc(C3(n4nccn4)CC3)on2)CCc2cccnc21 | System = GST-hRIPK1 (8-327) (Homo sapiens (Human)) | pIC50 = ____
< 5.52

Test system GST-hRIPK1 (8-327) (Homo sapiens (Human)); read-out pIC50; what value for CN1C(=O)[C@@H](NC(=O)c2ncc(Cc3ccccc3)s2)COc2cccnc21 ?
6.00 to 10.00

---

Settings: male, cynomolgus monkey, in vivo
Overview of reported Cyno unbound CL across a group of compounds:
Respond with the figure and its unit, in that order.

# Compound, Cyno unbound CL
data = [
    ("CN1C(=O)[C@@H](NC(=O)c2nnc(C3(c4ccccc4)CC3)o2)COc2cccnc21 [Example 66]", "116 mL/min/kg"),
    ("C[C@H]1Oc2cccnc2N(C)C(=O)[C@H]1NC(=O)c1nnc(Cc2ccccc2)[nH]1 [Example 94]", "40 mL/min/kg"),
    ("CN1C(=O)[C@@H](NC(=O)c2nnc(Cc3ccccc3)[nH]2)[C@H]2C[C@H]2c2cccnc21 [Example 75A]", "93 mL/min/kg"),
]

Data request, read-out Cyno unbound CL, for CN1C(=O)[C@@H](NC(=O)c2nnc(Cc3ccccc3)o2)COc2cccnc21 [Example 146]
39 mL/min/kg

Which Cyno unbound CL value is on record for CN1C(=O)[C@@H](NC(=O)c2nnc(Cc3ccccc3)[nH]2)COc2cccnc21 [Example 42] ?
42 mL/min/kg

Which Cyno unbound CL value belongs to O=C(N[C@@H]1C(=O)Nc2c(F)cc(F)cc2[C@@H]2C[C@H]12)c1nnc(Cc2ccccc2)[nH]1 [Example 83A] ?
82 mL/min/kg

Which Cyno unbound CL is listed for CN1C(=O)[C@@H](NC(=O)c2nnc(Cc3ccccc3)[nH]2)COc2ccccc21 [A, reference compound] ?
117 mL/min/kg

Would you mind telling me what Cyno unbound CL value was observed for C[C@H]1Oc2cccnc2N(C)C(=O)[C@H]1NC(=O)c1nnc(Cc2ccccc2)o1 [Example 134] ?
140 mL/min/kg
